TARGET_SYSTEM: T1, βarr2 R394A mutant (Rattus norvegicus, UniProt P29067 1-410, R394A)
T1 construct: β-arrestin2, rat (as the wild type m1), with R394A; also called R394A (site II); source: purified
T1 sequence (P29067 whole entry R394A): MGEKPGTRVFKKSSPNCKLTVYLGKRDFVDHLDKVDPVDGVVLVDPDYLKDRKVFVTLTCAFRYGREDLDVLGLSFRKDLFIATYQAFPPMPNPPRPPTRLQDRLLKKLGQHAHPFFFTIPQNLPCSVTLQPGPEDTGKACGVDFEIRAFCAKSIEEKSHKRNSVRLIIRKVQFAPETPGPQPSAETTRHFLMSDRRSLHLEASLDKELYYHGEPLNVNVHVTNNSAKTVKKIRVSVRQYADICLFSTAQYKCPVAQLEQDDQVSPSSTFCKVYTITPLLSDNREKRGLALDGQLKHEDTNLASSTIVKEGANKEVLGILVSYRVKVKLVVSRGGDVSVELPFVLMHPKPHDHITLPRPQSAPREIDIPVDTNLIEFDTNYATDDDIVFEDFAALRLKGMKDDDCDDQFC
ASSAY_PROCEDURE: ITC; 1 mM peptide injected (2.5 μL, 200 s intervals) into 200 μM βarr2 in the cell; 298 K; 20 mM HEPES pH 7.0, 200 mM NaCl; two-site model for the wild type
CONDITIONS_USED: both partners purified
Square brackets hold non-standard residues; d marks the D form. Ends that are not written are not given here. pT = C[C@@H](OP(=O)(O)O)[C@H](N)C(=O)O; pS = N[C@@H](COP(=O)(O)O)C(=O)O
EXPERIMENTAL_READOUT: pKd
Here pKd is given on a logarithmic scale as minus log10 of the concentration in mol/L.

Recall and state the measured pKd for ASRV[pS]E[pT]EY[pS]ALEQ (peptide, UniProt P25106 346-359, looked up, CXCR7 (atypical chemokine receptor), C-terminal residues 346-359; also called distal phospho-site cluster PxPxxP; source: synthetic peptide (NovoPep and Tufts University Core Facility)) [C7pp2, phosphopeptide from the carboxyl terminus of CXCR7 (residues 346-359)] . 5.96
